Reference source: patent US20210206877A1

target_system: BACE1 endogenous to primary cortical neurons from E16.5 CD1 mice (mouse, UniProt P56818 46-501)
Sequence (P56818 46-501): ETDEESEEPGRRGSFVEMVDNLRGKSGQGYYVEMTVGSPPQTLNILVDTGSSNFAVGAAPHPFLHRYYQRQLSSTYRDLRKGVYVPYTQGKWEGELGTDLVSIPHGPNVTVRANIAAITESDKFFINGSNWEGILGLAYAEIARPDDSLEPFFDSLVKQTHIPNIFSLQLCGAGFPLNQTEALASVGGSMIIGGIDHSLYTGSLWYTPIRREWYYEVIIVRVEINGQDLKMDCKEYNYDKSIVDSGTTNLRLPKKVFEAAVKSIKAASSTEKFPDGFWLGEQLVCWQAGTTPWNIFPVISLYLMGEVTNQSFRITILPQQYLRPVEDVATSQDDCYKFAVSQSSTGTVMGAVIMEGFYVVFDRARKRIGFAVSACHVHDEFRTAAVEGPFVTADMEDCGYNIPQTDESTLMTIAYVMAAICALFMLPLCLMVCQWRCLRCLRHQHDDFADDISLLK
assay_name: cell-based or functional assay
measurement_label: max % inhibition, Abeta x-40 in mouse cortical neurons

* 6311 (antibody, V domains shown) VH: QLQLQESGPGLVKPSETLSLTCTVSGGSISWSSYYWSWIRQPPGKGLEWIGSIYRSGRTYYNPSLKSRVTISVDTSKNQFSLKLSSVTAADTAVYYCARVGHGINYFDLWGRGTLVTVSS VL: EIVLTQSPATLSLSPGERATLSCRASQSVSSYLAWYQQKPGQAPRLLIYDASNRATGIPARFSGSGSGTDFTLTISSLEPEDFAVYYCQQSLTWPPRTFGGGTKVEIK | 63%
* 6305 (antibody, V domains shown) VH: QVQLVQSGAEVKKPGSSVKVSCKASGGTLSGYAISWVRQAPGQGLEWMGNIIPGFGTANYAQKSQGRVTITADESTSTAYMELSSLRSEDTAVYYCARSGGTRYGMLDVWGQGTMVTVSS VL: EIVLTQSPATLSVSPGERATLSCRASQSVGSNLAWYQQKPGQAPRLLIYGASTRATGIPARFSGSGSGTEFTLTISSLQSEDFAVYYCQQSFVWPPRTFGGGTKVEIK | 67%
* 6303 (antibody, V domains shown) VH: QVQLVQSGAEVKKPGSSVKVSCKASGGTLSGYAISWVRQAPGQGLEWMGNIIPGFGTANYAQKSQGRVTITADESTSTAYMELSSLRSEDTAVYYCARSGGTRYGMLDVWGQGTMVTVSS VL: EIVMTQSPATLSVSPGERATLSCRASQSVSSNLAWYQQKPGQAPRLLIFGASTRATGIPARFSGSGSGTEFTLTISSLQSEDFAVYYCQQLLTWPPRTFGGGTKVEIK | 76%
